I'd appreciate it if you could supply pIC50 values for the items below.
- Target Or Test System: FLT3 (Homo sapiens, UniProt P36888)
- Sequence (P36888 27-993): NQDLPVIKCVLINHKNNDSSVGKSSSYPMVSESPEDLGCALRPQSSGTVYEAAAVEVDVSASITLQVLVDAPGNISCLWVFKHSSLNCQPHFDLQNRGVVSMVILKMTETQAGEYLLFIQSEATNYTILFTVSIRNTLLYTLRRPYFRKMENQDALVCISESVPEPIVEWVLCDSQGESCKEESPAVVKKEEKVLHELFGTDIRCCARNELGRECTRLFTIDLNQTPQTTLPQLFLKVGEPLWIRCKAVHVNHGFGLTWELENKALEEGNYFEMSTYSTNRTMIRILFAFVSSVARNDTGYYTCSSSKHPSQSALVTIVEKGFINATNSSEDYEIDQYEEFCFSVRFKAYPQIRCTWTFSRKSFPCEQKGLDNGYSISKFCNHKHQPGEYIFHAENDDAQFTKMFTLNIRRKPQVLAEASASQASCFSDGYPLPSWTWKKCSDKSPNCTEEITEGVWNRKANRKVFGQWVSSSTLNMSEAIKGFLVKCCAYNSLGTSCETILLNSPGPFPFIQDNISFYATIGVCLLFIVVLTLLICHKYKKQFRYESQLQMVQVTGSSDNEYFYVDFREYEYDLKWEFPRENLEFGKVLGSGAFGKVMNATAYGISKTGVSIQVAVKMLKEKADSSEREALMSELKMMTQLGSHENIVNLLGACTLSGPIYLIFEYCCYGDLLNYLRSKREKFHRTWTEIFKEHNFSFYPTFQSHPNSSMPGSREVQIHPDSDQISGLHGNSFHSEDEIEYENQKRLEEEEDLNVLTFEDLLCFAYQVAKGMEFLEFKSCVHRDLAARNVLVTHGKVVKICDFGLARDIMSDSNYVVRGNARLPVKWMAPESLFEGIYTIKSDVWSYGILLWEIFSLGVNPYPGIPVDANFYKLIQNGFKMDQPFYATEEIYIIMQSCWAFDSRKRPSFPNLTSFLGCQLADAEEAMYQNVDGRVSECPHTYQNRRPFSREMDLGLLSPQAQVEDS
// pIC50: -log10(molar conc.)

Field: pIC50 (FLT3 (Homo sapiens, UniProt P36888)). Entry: O=[N+]([O-])c1cccc2[nH]c(CNc3nc(N4CCOCC4)nc4c3ncn4-c3ccsc3)nc12 6.52

Field: pIC50 (FLT3 (Homo sapiens, UniProt P36888)). Entry: Fc1cccc(-n2cnc3c(NCc4nc5c(F)c(F)ccc5[nH]4)nc(N4CCOCC4)nc32)c1 5.52

---

- Assay Summary: Mouse PK studies
- Type: in vivo
- Conditions: IV dosing, 1 mg/kg, 10/10/80 DMSO/Tween/water
I'd appreciate it if you could supply Cmax values for the items below.
Include the unit right after the number.

Quick check: Cmax of O=[N+]([O-])c1cccc2[nH]c(CNc3nc(N4CCOCC4)nc4c3ncn4-c3ccsc3)nc12 [SR-1277] ? 1.2 µM

Quick check: Cmax of c1ccc2[nH]c(CNc3nc(N4CCOCC4)nc4c3ncn4-c3ccsc3)nc2c1 [SR-653234] ? 3.2 µM

Quick check: Cmax of Fc1cccc(-n2cnc3c(NCc4nc5c(F)c(F)ccc5[nH]4)nc(N4CCOCC4)nc32)c1 [SR-3029] ? 7.3 µM
